Read-out: Collagen IV, COL4A1 (gene 1282)
assay.notes: BSK_MyoF_CollagenIV: BioMAP Diversity Plus: MyoF Assay for Collagen IV Biomarker Activity (AID 2284247)
setup.conditions: primary human lung fibroblasts
Activity calls are given as the source filed them. How the source made its calls: active means hit-call score of the fitted dose curve at least 0.9, where 1 is the maximum; inactive means score below 0.9.
Outcomes: TRUE = active, FALSE = inactive

compound | assigned.label
FC(F)(F)C(F)(F)C(F)(F)C(F)(F)C(F)(F)C(F)(F)C(F)(F)Br | FALSE
OCC(F)(F)C(F)(F)C(F)(F)F | FALSE
O=C(O)C=C(C(F)(F)F)C(F)(F)F | FALSE
Nc1ccc([N+](=O)[O-])cc1O | FALSE
OCC(F)(F)C(F)(F)C(F)(F)C(F)F | FALSE
C#C[C@]1(O)CC[C@H]2[C@@H]3CCc4cc(OC)ccc4[C@H]3CC[C@@]21C | FALSE
FC(F)(F)C(F)(F)C(F)(F)CI | FALSE
FC(F)(F)C(F)(F)C(F)(F)C(F)(F)C(F)(F)C(F)(F)C(F)(F)C(F)(F)F | FALSE
CCCCCCCOC(=O)c1ccccc1C(=O)OCCCCCCC | FALSE
CC(CCl)OP(=O)(OC(C)CCl)OC(C)CCl (stereo unspecified) | FALSE
C=CC(F)(F)C(F)(F)C(F)(F)C(F)(F)C(F)(F)C(F)(F)C(F)(F)C(F)(F)C=C | FALSE
FC(F)(F)C(F)(F)C(F)(F)N(C(F)(F)C(F)(F)C(F)(F)F)C(F)(F)C(F)(F)C(F)(F)F | FALSE
OCC(F)(F)C(F)(F)C(F)(F)C(F)(F)C(F)(F)C(F)F | FALSE
CCCCCCC(C)OC(=O)CCCCC(=O)OC(C)CCCCCC (stereo unspecified) | FALSE
CC(=O)Nc1ccc(N=Nc2cc(C)ccc2O)cc1 | TRUE
FC(F)(F)C(F)(F)C(F)(F)C(F)(F)C(F)(F)C(F)(F)CC1CO1 (stereo unspecified) | FALSE
CCCCOCCOCCOC(=O)CCCCC(=O)OCCOCCOCCCC | FALSE
OCCCC(F)(F)C(F)(F)C(F)(F)F | FALSE
CCO[Si](CCC(F)(F)C(F)(F)C(F)(F)C(F)(F)C(F)(F)C(F)(F)F)(OCC)OCC | FALSE
Oc1ccc(Nc2ccccc2)cc1 | FALSE
O=C(O)C(F)(F)C(F)(F)F | FALSE
Cc1ccc(S(=O)(=O)OCC(F)(F)C(F)(F)C(F)(F)C(F)(F)C(F)(F)C(F)F)cc1 | FALSE
FC(F)(Br)C(F)(F)C(F)(F)C(F)(F)C(F)(F)C(F)(F)Br | FALSE
CC(C)(C)C(=O)CC(=O)C(F)(F)C(F)(F)C(F)(F)F | FALSE
CCCCCCCCC(F)(F)C(F)(F)C(F)(F)C(F)(F)C(F)(F)C(F)(F)F | FALSE
C=CC/C=C/C/C=C/C/C=C/C | FALSE
FC(F)(F)C(F)(F)CNCC(F)(F)C(F)(F)F | FALSE
O=C(O)C(F)(OC(F)(F)C(F)(OC(F)(F)C(F)(OC(F)(F)C(F)(F)C(F)(F)F)C(F)(F)F)C(F)(F)F)C(F)(F)F (stereo unspecified) | FALSE
O=S(=O)(OCCOC(F)(F)F)C(F)(F)F | FALSE
C=C(C)C(=O)OCCC(F)(F)C(F)(F)C(F)(F)C(F)(F)C(F)(C(F)(F)F)C(F)(F)F | FALSE
COC(=O)CCC(F)(F)C(F)(F)C(F)(F)C(F)(F)F | FALSE
C=CC(=O)OCC(F)(F)C(F)(F)C(F)(F)C(F)(F)C(F)(F)C(F)(F)C(F)(F)F | FALSE
O=C(CC(=O)C(F)(F)C(F)(F)F)C(F)(F)F | FALSE
O=S(=O)(OCC(F)F)C(F)(F)F | FALSE
O=P(O)(O)OCCC(F)(F)C(F)(F)C(F)(F)C(F)(F)C(F)(F)C(F)(F)F | FALSE
CO[Si](OC)(c1ccccc1)c1ccccc1 | FALSE
CCc1ccc(C(c2ccc(CC)cc2)C(Cl)Cl)cc1 | FALSE
FC(F)(F)C(F)(F)C(F)(F)C(F)(F)C(F)(F)C(F)(F)CCS | FALSE
C=CC(F)(F)C(F)(F)C(F)(F)C(F)(F)C(F)(F)C(F)(F)C(F)(F)C(F)(F)F | FALSE
FC(F)(F)C(F)(F)C(F)(F)C(F)(F)C(F)(F)CCI | FALSE
OCC(F)(F)C(F)(F)C(F)(F)C(F)(F)C(F)(F)C(F)(F)F | FALSE
